Reported EC50 by item:
Tested on: BJ
METHOD: cytotoxicity toward BJ-TERT-LT-ST fibroblasts, dose response, cell-based, RAS-independent, luminescence (AID 1935);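 also: BJ fibroblasts immortalized with TERT plus LT and ST oncogenes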
Type: functional
CONDITIONS_USED: Homo sapiens

CCCCCCCCCCn1c2c(c(=N)c3c1CCC3)CCC2 ... 5.73 µM (inconclusive)
CCCC1=Nc2cc(C(=O)N3CCC(C(=O)OCC)CC3)ccc2Sc2ccccc21 ... > 150 µM (not active)
c1ccc(-c2ccc(-c3nc(-c4ccccn4)no3)cc2)cc1 ... 9.38 µM (inconclusive)
Cc1cc(C)cc(NS(=O)(=O)c2ccc(-c3cnc(C4CC4)o3)cc2)c1 ... 0.521 µM (inconclusive)

Let us move to another entry and its EC50.
*Q* EC50 lookup needed for CC(C)c1cc(NC(=O)CCl)on1 , thanks.
*A* > 150 µM (not active)

---

The entries below are paired with their reported AC50.
METHOD: intracellular Trypanosoma cruzi inhibitors in host cells – cell-based, plate reader, cherry-pick samples, set 3, dose response (AID 651818);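 also: compounds incubated with infected cells for about four days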
Assay type: functional
Activity calls are given as the source filed them.

Past entries and their recorded results:
C[C@@H]1CN([C@H](C)CO)C(=O)Cc2cc(NC(=O)Nc3cccc4ccccc34)ccc2O[C@H]1CN(C)Cc1ccccc1 ... 6.25 µM (active)
C[C@@H]1CCCCO[C@@H](CN(C)C(=O)c2ccccc2)[C@@H](C)CN([C@H](C)CO)C(=O)c2cc(NC(=O)Nc3ccc(C(F)(F)F)cc3)ccc2O1 ... 6.48 µM (active)
C[C@H](CO)N1C[C@H](C)[C@@H](CN(C)Cc2ccccc2)Oc2c(NC(=O)c3ccncc3)cccc2C1=O ... 0.179 µM (active)

// next entry
*Q* Reported AC50, molecule C[C@@H]1CCCCO[C@@H](CN(C)Cc2ccc(C(F)(F)F)cc2)[C@@H](C)CN([C@H](C)CO)C(=O)c2cc(NC(=O)Nc3ccccc3)ccc2O1 : ____
*A* 5.35 µM (active)

---

METHOD: NIH-3T3 fibroblast cytotoxicity, dose response, cytotoxicity control, cell-based, fluorescence, Alamar Blue, secondary assay (AID 2327);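 also: NIH-3T3 mouse fibroblasts cultured with fluconazole at 8 µg/mL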
Type: functional
Activity calls are given as the source filed them.
REPORTED_METRIC: EC50

O=[N+]([O-])c1cc(Br)c(O)c(/C=N/Nc2nnnn2-c2cccc3ccccc23)c1 ... > 150 µM (inconclusive)
S=C(NCCN1CCOCC1)NC1CCCC1 ... > 150 µM (inactive)
O=C(CCN1CCN(c2ccccc2)CC1)N/N=C/c1ccc(O)c(O)c1O ... > 150 µM (inactive)
NC(=O)c1c(NC(=O)c2ccccc2F)sc2c1CCCC2 ... 25.1 µM (active)

# context switch: different molecule, same EC50
*Q* EC50 for Cc1ccc(C=Cc2ccc(N(C)C)cc2)[n+](C)c1 ?
*A* > 160 µM (inconclusive)

---

TARGET_OF_ASSAY: Histone-lysine N-methyltransferase NSD2 (Homo sapiens)
Sequence (O96028 whole entry): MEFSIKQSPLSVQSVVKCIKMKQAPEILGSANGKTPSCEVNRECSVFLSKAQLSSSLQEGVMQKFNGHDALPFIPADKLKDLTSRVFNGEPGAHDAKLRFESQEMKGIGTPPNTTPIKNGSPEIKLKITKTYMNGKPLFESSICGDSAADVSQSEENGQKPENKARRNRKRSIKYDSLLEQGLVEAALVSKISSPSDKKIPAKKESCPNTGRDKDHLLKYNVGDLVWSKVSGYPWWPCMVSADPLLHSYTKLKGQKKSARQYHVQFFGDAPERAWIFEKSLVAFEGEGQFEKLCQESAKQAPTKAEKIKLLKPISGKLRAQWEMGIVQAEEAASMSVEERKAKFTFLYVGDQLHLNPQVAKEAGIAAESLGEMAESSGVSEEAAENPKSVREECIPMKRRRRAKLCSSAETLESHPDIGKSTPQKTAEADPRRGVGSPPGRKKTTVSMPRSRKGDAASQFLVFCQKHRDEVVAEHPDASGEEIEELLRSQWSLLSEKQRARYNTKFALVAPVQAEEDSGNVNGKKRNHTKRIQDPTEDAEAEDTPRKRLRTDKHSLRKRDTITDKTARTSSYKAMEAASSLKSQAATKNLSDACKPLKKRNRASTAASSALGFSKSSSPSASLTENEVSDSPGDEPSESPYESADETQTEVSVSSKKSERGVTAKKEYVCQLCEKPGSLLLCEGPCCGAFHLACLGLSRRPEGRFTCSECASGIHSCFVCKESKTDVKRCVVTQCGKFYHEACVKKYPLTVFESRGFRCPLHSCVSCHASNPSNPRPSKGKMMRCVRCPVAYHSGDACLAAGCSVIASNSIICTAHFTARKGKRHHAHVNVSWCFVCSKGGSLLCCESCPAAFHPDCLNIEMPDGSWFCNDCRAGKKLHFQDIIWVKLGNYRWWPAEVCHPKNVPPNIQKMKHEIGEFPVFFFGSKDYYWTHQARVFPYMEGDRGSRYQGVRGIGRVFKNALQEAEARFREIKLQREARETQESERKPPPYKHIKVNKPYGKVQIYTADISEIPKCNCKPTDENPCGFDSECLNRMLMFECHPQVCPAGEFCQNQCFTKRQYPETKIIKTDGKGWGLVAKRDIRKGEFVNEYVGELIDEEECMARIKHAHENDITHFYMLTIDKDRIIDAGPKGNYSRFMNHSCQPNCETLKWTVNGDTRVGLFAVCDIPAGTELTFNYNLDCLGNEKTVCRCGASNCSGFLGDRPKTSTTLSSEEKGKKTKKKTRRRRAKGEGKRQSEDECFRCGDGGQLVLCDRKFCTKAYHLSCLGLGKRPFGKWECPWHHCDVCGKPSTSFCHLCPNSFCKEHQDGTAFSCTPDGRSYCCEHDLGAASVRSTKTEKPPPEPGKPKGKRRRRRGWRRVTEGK
Assay type: biochemical
The source made the active and inactive calls.
Field 'call' accepts t for active, f for inactive

// below: answered compounds
COc1ccc(NS(=O)(=O)c2ccc3c(c2)[C@H]2C=CC[C@H]2[C@@H](c2ccc(C(=O)O)cc2)N3)cc1 ... f
CCN(CC)CCCNc1cc(C)c(C#N)c2nc3ccccc3n12 ... f
CCNCCC(CCC(C)C)c1ccc2c(c1)OCO2 (stereo unspecified) ... f

*Q* # lookup: test call for Cc1ccc(CN2C(=O)N/C(=C\c3cccn3-c3cccc(C(=O)O)c3)C2=O)cc1
*A* t

*Q* What is the recorded call for this compound in the test? CCc1ccc(N2C(=O)NC(=O)/C(=C\C=C\c3ccco3)C2=O)cc1
*A* f

*Q* Recorded test outcome, item O=C(/C=C/c1ccc(O)c(O)c1)OC1C(O)CC(OC(=O)/C=C/c2ccc(O)c(O)c2)(C(=O)O)CC1O (stereo unspecified)
*A* t
